Test system: HT-29
MEASUREMENT DESCRIPTION: Cytotoxicity against human HT-29 cells
Type: functional
TEST PARAMETERS: read-out: ED50 (the source's name)
MEASURED METRIC: EC50

COMPOUND SMILES: CCCCCCCCCC[C@H](O)[C@@H]1CC[C@H]([C@H]2CC[C@@H]([C@H](O)CCCCCCCCCCCCC3=C[C@H](C)OC3=O)O2)O1
TEST RESULT: 3.04 µg/mL
--
COMPOUND SMILES: CCCCCCCCCCCCCCCC(=O)NCCc1c[nH]c2ccccc12
TEST RESULT: > 10 µg/mL
--
COMPOUND SMILES: CCCCCCCCCCCCCCCCCCCCCC(=O)NCCc1c[nH]c2ccccc12
TEST RESULT: > 10 µg/mL

----------
MEASUREMENT DESCRIPTION: Toxicity in Artemia salina
Assay type: organism-based
TEST PARAMETERS: in vivo

COMPOUND SMILES: CCCCCCCCCCCCCCCC(=O)NCCc1c[nH]c2ccccc12
LC50: > 500 µg/mL
--
COMPOUND SMILES: CCCCCCCCCCCCCCCCCCCCCCC(=O)NCCc1c[nH]c2ccccc12
LC50: > 500 µg/mL
--
COMPOUND SMILES: CCCCCCCCCCCCCCCCCCCC(=O)NCCc1c[nH]c2ccccc12
LC50: > 500 µg/mL
